Biological target: 5-hydroxytryptamine receptor 1A (Rattus norvegicus, UniProt P19327)
Sequence (P19327 whole entry): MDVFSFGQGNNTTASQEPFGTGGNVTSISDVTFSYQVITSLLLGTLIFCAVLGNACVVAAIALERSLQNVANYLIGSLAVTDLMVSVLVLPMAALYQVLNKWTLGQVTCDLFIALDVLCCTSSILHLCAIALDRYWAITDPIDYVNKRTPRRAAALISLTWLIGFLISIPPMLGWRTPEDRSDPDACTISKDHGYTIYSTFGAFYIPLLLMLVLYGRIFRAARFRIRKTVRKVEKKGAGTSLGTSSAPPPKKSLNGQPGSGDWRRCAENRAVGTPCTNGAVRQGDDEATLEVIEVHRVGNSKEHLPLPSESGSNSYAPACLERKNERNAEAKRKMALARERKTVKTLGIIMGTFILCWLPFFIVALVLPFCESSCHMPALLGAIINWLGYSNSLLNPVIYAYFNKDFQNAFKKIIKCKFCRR
pIC50: −log10 of the molar value.
Examples of compounds with documented pIC50 follow.
readout-type: pIC50

{"columns": ["smiles-notation", "readout-type", "result-value"],
 "data": [
  ["CCN1C(=O)Cc2cc(CCN3CCN(c4cccc5ccccc45)CC3)ccc21", "pIC50", 8.54],
  ["O=C1Cc2cc(CCN3CCN(c4cccc5ccccc45)CC3)ccc2N1", "pIC50", 8.31],
  ["Nc1nc(-c2ccc(CCN3CCN(c4cccc5ccccc45)CC3)cc2)cs1", "pIC50", 7.96],
  ["CC1(C)C(=O)Nc2ccc(CCN3CCN(c4cccc5ccccc45)CC3)cc21", "pIC50", 8.16]
]}
